- Assay Remarks: Metabolic stability in rat liver microsomes assessed as clearance at 1 uM incubated for 15 to 30 mins in the presence of NADPH generating system by LC-MS/MS analysis
- Assay type: ADME, Microsome
- Experimental Context: time 15-30 min, read-out: CLH
microsomal CLint at 1 µM listing for selected molecules.
Parameter Measured: microsomal CLint at 1 µM (µL/min/mg)

# Structure Smiles String, Parameter Measured, Modifier, Number
measured = [
    ("Cc1cc(Cc2cccc(Br)c2)cc(=O)n1C[C@H]1C[C@@H]1C#N", "microsomal CLint at 1 µM", "=", 72),
    ("Cc1cc(Cn2nc(Cl)cc2Cl)cc(=O)n1C[C@H]1C[C@@H]1C#N", "microsomal CLint at 1 µM", "=", 22),
    ("CCN(Cc1cc(C)n(C[C@H]2C[C@@H]2C#N)c(=O)c1)c1ccc(F)cc1", "microsomal CLint at 1 µM", ">", 768),
    ("Cc1cc(Cn2nc(C(F)(F)F)cc2Cl)cc(=O)n1C[C@H]1C[C@@H]1C#N", "microsomal CLint at 1 µM", "=", 22),
    ("Cc1cc(Cc2cccc(Cl)c2)cc(=O)n1C[C@H]1C[C@@H]1C#N", "microsomal CLint at 1 µM", "=", 75),
    ("Cc1cccc(Cc2cc(C)n(C[C@H]3C[C@@H]3C#N)c(=O)c2)c1", "microsomal CLint at 1 µM", "=", 26),
    ("Cc1cc(Cn2nc(Br)cc2Cl)cc(=O)n1C[C@H]1C[C@@H]1C#N", "microsomal CLint at 1 µM", "=", 14),
]

====

- Assay Remarks: Drug concentration in Sprague-Dawley rat plasma at 10 mg/kg, po measured after 1 hrs by LC-MS/MS analysis
- Format: ADME, organism-based

# Structure Smiles String, Units, concentration at 1 h
records = [
    ("Cc1cc(Cn2nc(Br)cc2Cl)cc(=O)n1C[C@H]1C[C@@H]1C#N", "ng/mL", 590),
]

====

EC50 listing for selected compounds.
- Target: Glutamate receptor ionotropic, NMDA 2A (Homo sapiens, UniProt Q05586+Q12879)
- Sequence (Q12879 whole entry, one chain of several): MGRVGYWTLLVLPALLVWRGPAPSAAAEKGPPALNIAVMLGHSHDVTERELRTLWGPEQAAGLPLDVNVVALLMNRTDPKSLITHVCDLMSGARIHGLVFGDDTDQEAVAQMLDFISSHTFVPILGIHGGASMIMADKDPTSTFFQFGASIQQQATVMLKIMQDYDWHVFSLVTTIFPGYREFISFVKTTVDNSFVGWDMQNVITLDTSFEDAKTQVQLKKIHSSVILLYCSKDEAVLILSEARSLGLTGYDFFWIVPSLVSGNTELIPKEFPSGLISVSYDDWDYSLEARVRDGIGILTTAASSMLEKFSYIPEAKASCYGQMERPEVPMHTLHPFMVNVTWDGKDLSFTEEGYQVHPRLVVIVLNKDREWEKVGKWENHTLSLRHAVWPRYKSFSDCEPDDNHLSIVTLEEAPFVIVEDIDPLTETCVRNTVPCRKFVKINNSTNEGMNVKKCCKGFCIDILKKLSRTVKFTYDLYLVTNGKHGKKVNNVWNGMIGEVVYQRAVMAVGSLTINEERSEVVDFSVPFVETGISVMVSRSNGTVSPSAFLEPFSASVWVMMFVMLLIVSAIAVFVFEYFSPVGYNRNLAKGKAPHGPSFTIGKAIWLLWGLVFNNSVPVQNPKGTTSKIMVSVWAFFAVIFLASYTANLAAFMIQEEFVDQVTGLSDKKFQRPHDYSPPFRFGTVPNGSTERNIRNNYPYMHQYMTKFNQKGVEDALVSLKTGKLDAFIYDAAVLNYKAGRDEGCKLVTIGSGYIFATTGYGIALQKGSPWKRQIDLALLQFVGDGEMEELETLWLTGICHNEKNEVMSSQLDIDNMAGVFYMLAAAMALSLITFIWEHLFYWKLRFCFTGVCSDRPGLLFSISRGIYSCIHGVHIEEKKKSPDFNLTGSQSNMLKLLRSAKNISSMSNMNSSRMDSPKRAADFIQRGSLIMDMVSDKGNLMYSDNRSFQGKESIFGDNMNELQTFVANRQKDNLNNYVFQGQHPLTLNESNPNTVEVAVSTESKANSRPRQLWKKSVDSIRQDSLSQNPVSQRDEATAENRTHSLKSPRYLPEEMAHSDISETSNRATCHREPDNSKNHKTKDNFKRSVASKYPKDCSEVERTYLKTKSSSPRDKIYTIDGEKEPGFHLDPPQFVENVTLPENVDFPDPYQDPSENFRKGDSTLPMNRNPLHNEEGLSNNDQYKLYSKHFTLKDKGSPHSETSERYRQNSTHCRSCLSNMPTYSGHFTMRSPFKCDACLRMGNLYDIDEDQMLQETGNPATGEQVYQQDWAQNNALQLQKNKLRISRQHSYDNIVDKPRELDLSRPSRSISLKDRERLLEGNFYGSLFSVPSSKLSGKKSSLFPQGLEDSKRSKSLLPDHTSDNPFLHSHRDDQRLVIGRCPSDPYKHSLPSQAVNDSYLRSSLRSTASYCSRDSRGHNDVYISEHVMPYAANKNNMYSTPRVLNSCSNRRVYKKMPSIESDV
- Assay Remarks: Positive allosteric modulator activity at GluN2A NMDA receptor (unknown origin) expressed in CHO cells co-expressing GluN1a in the presence of L-glutamate and glycine by Ca2+ influx assay
- Format: cell-based
Parameter Measured: EC50 (µM)

# Structure Smiles String, Units, Modifier, Number
data = [
    ("CCN(Cc1cc(C)n(CC2CCC2)c(=O)c1)c1ccc(F)cc1", "µM", "=", 23),
    ("CCCc1cc(CN(CC)c2ccc(F)cc2)cc(=O)n1CC1CC1", "µM", "=", 12),
    ("CCN(Cc1cc(=O)n(CC2CC2)c(C)n1)c1ccc(F)cc1", "µM", "=", 13),
    ("CCc1cc(CN(CC)c2ccc(F)cc2)cc(=O)n1CC1CC1", "µM", "=", 13),
    ("Cc1cccc(Cc2cc(C)n(C[C@H]3C[C@@H]3C#N)c(=O)c2)c1", "µM", ">", 30),
    ("CCN(Cc1cc(C)n(Cc2ccccc2)c(=O)c1)c1ccc(F)cc1", "µM", ">", 30),
    ("CCN(Cc1cc(C)n(CC2(C#N)CC2)c(=O)c1)c1ccc(F)cc1", "µM", ">", 30),
    ("CCN(Cc1cc(C)n(CCCC#N)c(=O)c1)c1ccc(F)cc1", "µM", ">", 30),
]
